# ASSAYED TARGET: T1, E. coli-expressed recombinant human IL-13 (human, UniProt P35225 35-146)
# T1 construct: Untagged E. coli-expressed human IL-13; also called hIL-13; human IL13 (CA)
# T1 sequence (P35225 other isoform, or with tags, fused parts or gaps): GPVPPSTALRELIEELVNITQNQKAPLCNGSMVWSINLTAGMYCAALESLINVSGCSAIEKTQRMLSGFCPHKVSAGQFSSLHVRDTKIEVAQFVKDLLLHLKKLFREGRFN
# PROTOCOL NOTES: BIAcore analysis 1, antibody captured, IL-13 in solution
PROPERTY NAME: kon

[[record]]
binder = "chimaeric 6A1 (antibody, human IgG1, V domains shown, Parent murine 6A1 V regions on human IgG1/k wild type C regions, expressed in CHO cells; also called 6A1c; 6A1 chimaeric antibody) VH: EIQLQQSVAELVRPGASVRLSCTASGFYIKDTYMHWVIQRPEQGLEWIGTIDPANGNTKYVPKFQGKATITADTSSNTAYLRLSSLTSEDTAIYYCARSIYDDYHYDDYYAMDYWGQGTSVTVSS VL: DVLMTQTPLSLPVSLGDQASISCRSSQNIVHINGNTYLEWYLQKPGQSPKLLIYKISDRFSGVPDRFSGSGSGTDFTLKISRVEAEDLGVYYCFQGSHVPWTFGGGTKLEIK"
assay_result = "464000 M⁻¹ s⁻¹"


Source listed as patent US20110243928A1.
